Test: Next Generation Impactor (NGI) testing of pMDI prototype formulations
Format: physicochemical
Details: Formulation 1
parameter_measured: MMAD (µm)
Numbers only, in µm.

molecule	MMAD, µm
CCCCCc1cc(O)c2c(c1)OC(C)(CCC=C(C)C)C=C2 (stereo not shown)	4.5
C=C(C)[C@@H]1CCC(C)=C[C@H]1c1c(O)cc(CCCCC)cc1O [CBD, cannabidiol, reference compound]	4.6
C[N+]1(C)CCC(OC(=O)C(O)(c2ccccc2)C2CCCC2)C1 (stereo not shown) [Glycopyrronium, glycopyrronium, reference compound]	4.9

Turning now to a further molecule:
[ask] Given CCCCCc1cc(O)c(C/C=C(\C)CCC=C(C)C)c(O)c1 , respond with its MMAD.
[reply] 4.7

----------
Record form. Attribute: % Emitted dose. Fill in for each entry.
Assay: Next Generation Impactor (NGI) testing of pMDI prototype formulations
Type: physicochemical
Settings: Formulation 1
Give bare numbers, in %.

Look over these answered cases.
compound	% Emitted dose (%)
C[N+]1(C)CCC(OC(=O)C(O)(c2ccccc2)C2CCCC2)C1 (stereo not shown) [Glycopyrronium, glycopyrronium, reference compound]	104
C=C(C)[C@@H]1CCC(C)=C[C@H]1c1c(O)cc(CCCCC)cc1O [CBD, cannabidiol, reference compound]	104
CCCCCc1cc(O)c2c(c1)OC(C)(CCC=C(C)C)C=C2 (stereo not shown)	89

[ask] Given CCCCCc1cc(O)c(C/C=C(\C)CCC=C(C)C)c(O)c1 , respond with its % Emitted dose.
[reply] 115

----------
Experiment: Next Generation Impactor (NGI) testing of pMDI prototype formulations
Type: physicochemical
Details: Formulation 3
Method: The Next Generation Pharmaceutical Impactor (NGI) testing is performed using Copley and MSP instruments. Emitted dose or Ex-device is calculated as the total dose deposited in the NGI apparatus starting from Throat stage to Micro-orifice collector (MOC). The Fine Particle Dose (FPD) is calculated as the total dose deposited in Stages 3 to MOC of the NGI apparatus. […]
parameter_measured: % Emitted dose (%)
Numbers only, in %.

molecule	unit_of_measure	numeric_value
CCCCCc1cc(O)c(C/C=C(\C)CCC=C(C)C)c(O)c1	%	111
C[N+]1(C)CCC(OC(=O)C(O)(c2ccccc2)C2CCCC2)C1 (stereo not shown) [Glycopyrronium, glycopyrronium, reference compound]	%	106

Count: 2. Required value per item: % Emitted dose.
1. C=C(C)[C@@H]1CCC(C)=C[C@H]1c1c(O)cc(CCC)cc1O
2. C=C(C)[C@@H]1CCC(C)=C[C@H]1c1c(O)cc(CCCCC)cc1O [CBD, cannabidiol, reference compound]

[reply]
[91, 101]

----------
Record form. Attribute: % Fine Particle Dose. Fill in for each entry.
Experiment: Next Generation Impactor (NGI) testing of pMDI prototype formulations
Type: physicochemical
Conditions: Formulation 4
Give bare numbers, in %.

Look over these answered cases.
molecule	unit_of_measure	% Fine Particle Dose
CCCCCc1cc(O)c2c(c1)OC(C)(C)c1ccc(C)cc1-2 [CBN, cannabinol]	%	34
CCCCCc1cc(O)c2c(c1)OC(C)(CCC=C(C)C)C=C2 (stereo not drawn) [CBC, cannabichromene]	%	36
C=C(C)[C@@H]1CCC(C)=C[C@H]1c1c(O)cc(CCCCC)cc1O [CBD, cannabidiol, reference compound]	%	36
C=C(C)[C@@H]1CCC(C)=C[C@H]1c1c(O)cc(CCC)cc1O [CBDV, cannabidivarin]	%	33
CCCCCc1cc(O)c(C/C=C(\C)CCC=C(C)C)c(O)c1 [CBG, cannabigerol]	%	34

Turning now to a further molecule:
[ask] Given C[N+]1(C)CCC(OC(=O)C(O)(c2ccccc2)C2CCCC2)C1 (stereo not drawn) [Glycopyrronium, glycopyrronium, reference compound] , respond with its % Fine Particle Dose.
[reply] 25

----------
Assay: Next Generation Impactor (NGI) testing of pMDI prototype formulations
Format: physicochemical
Conditions: Formulation 1; Stages 3 to MOC
Record form. Attribute: Fine Particle Dose. Fill in for each entry.
Answers are plain numbers, in µg.

Look over these answered cases.
compound	parameter_measured	numeric_value
C=C(C)[C@@H]1CCC(C)=C[C@H]1c1c(O)cc(CCCCC)cc1O [CBD, cannabidiol, reference compound]	Fine Particle Dose	122.8
CCCCCc1cc(O)c(C/C=C(\C)CCC=C(C)C)c(O)c1	Fine Particle Dose	129.5
C[N+]1(C)CCC(OC(=O)C(O)(c2ccccc2)C2CCCC2)C1 (stereo not shown) [Glycopyrronium, glycopyrronium, reference compound]	Fine Particle Dose	7.8

Turning now to a further compound:
[ask] Given CCCCCc1cc(O)c2c(c1)OC(C)(CCC=C(C)C)C=C2 (stereo not shown) , respond with its Fine Particle Dose.
[reply] 108.6

----------
Test: Next Generation Impactor (NGI) testing of pMDI prototype formulations
Type: physicochemical
Conditions: Formulation 2
Record form. Attribute: % Emitted dose. Fill in for each entry.
One number for each entry, in %.

Look over these answered cases.
molecule	% Emitted dose, %
C[N+]1(C)CCC(OC(=O)C(O)(c2ccccc2)C2CCCC2)C1 (stereo not shown) [Glycopyrronium, glycopyrronium, reference compound]	116
CCCCCc1cc(O)c(C/C=C(\C)CCC=C(C)C)c(O)c1 [CBG, cannabigerol]	109
CCCCCc1cc(O)c2c(c1)OC(C)(C)c1ccc(C)cc1-2 [CBN, cannabinol]	87

Turning now to a further molecule:
[ask] Given C=C(C)[C@@H]1CCC(C)=C[C@H]1c1c(O)cc(CCCCC)cc1O [CBD, cannabidiol, reference compound] , respond with its % Emitted dose.
[reply] 96

----------
Experiment: Next Generation Impactor (NGI) testing of pMDI prototype formulations
Format: physicochemical
Conditions: Formulation 1
parameter_measured: % Fine Particle Dose (%)
Numbers only, in %.

Count: 4. Required value per item: % Fine Particle Dose.
1. CCCCCc1cc(O)c(C/C=C(\C)CCC=C(C)C)c(O)c1 [CBG, cannabigerol]
2. C=C(C)[C@@H]1CCC(C)=C[C@H]1c1c(O)cc(CCCCC)cc1O [CBD, cannabidiol, reference compound]
3. CCCCCc1cc(O)c2c(c1)OC(C)(CCC=C(C)C)C=C2 (stereo not shown) [CBC, cannabichromene]
4. C[N+]1(C)CCC(OC(=O)C(O)(c2ccccc2)C2CCCC2)C1 (stereo not shown) [Glycopyrronium, glycopyrronium, reference compound]

[reply]
[43, 41, 36, 29]

----------
Test: Next Generation Impactor (NGI) testing of pMDI prototype formulations
Format: physicochemical
Conditions: Formulation 2; Stages 3 to MOC
parameter_measured: Fine Particle Dose (µg)
One number for each entry, in µg.

Look over these answered cases.
molecule	unit_of_measure	Fine Particle Dose
CCCCCc1cc(O)c(C/C=C(\C)CCC=C(C)C)c(O)c1	µg	118.0
C[N+]1(C)CCC(OC(=O)C(O)(c2ccccc2)C2CCCC2)C1 (stereo not shown) [Glycopyrronium, glycopyrronium, reference compound]	µg	7.7
CCCCCc1cc(O)c2c(c1)OC(C)(C)c1ccc(C)cc1-2	µg	105.8

Turning now to a further molecule:
[ask] Given C=C(C)[C@@H]1CCC(C)=C[C@H]1c1c(O)cc(CCCCC)cc1O [CBD, cannabidiol, reference compound] , respond with its Fine Particle Dose.
[reply] 111.0

----------
Assay: Next Generation Impactor (NGI) testing of pMDI prototype formulations
Format: physicochemical
Settings: Formulation 4; Throat stage to MOC
Experimental: The Next Generation Pharmaceutical Impactor (NGI) testing is performed using Copley and MSP instruments. Emitted dose or Ex-device is calculated as the total dose deposited in the NGI apparatus starting from Throat stage to Micro-orifice collector (MOC). The Fine Particle Dose (FPD) is calculated as the total dose deposited in Stages 3 to MOC of the NGI apparatus. […]
Mark true (1) for Actual Emitted dose under 200 µg, false (0) if at or over.

Use these answered entries as a reference point.
compound	label_value
CCCCCc1cc(O)c2c(c1)OC(C)(CCC=C(C)C)C=C2 (stereo not drawn)	false (0)
CCCCCc1cc(O)c(C/C=C(\C)CCC=C(C)C)c(O)c1	false (0)
C[N+]1(C)CCC(OC(=O)C(O)(c2ccccc2)C2CCCC2)C1 (stereo not drawn) [Glycopyrronium, glycopyrronium, reference compound]	true (1)
CCCCCc1cc(O)c2c(c1)OC(C)(C)c1ccc(C)cc1-2	true (1)

Shifting focus to the compound that follows.
[ask] Actual Emitted dose strictly < 200 µg for this compound? C=C(C)[C@@H]1CCC(C)=C[C@H]1c1c(O)cc(CCCCC)cc1O [CBD, cannabidiol, reference compound]
[reply] false (0)

----------
Experiment: Next Generation Impactor (NGI) testing of pMDI prototype formulations
Assay type: physicochemical
Settings: Formulation 3
parameter_measured: % Fine Particle Dose

Look over these answered cases.
molecule	% Fine Particle Dose
C=C(C)[C@@H]1CCC(C)=C[C@H]1c1c(O)cc(CCC)cc1O [CBDV, cannabidivarin]	36%
C[N+]1(C)CCC(OC(=O)C(O)(c2ccccc2)C2CCCC2)C1 (stereo not shown) [Glycopyrronium, glycopyrronium, reference compound]	31%
C=C(C)[C@@H]1CCC(C)=C[C@H]1c1c(O)cc(CCCCC)cc1O [CBD, cannabidiol, reference compound]	40%

Turning now to a further molecule:
[ask] Given CCCCCc1cc(O)c(C/C=C(\C)CCC=C(C)C)c(O)c1 [CBG, cannabigerol] , respond with its % Fine Particle Dose.
[reply] 43%
